tested on: P-4E-BP1 (T37/46); assay: Cell based AlphaLISA assay, inhibition of P-4E-BP1 (T37/46) in MDA-MB-468 cells (mTORC1 substrate); conditions: Homo sapiens, 4 h, AlphaLisa, two to four hours at 37° C., read-out: pIC50 for Inhibition of mTORC1 and mTORC2 Substrate Phosphorylation P-4E-BP1-(T37/46) (converted)
parameter: IC50

Name the reported IC50 value associated with the molecule "CO[C@H]1C[C@@H]2CC[C@@H](C)[C@@](O)(O2)C(=O)C(=O)N2CCCC[C@H]2C(=O)O[C@H]([C@H](C)C[C@@H]2CC[C@@H](OC(=O)NCCOCCOCCN3C[C@@H]4C[C@H]3CN4CCOCCOCCOCCOCCC(=O)N3CCc4cc(Cn5nc(-c6ccc7oc(N)nc7c6)c6c(N)ncnc65)ccc4C3)[C@H](OC)C2)C[C@@H](O)[C@H](C)/C=C(\C)[C@@H](O)[C@@H](OC)C(=O)[C@H](C)C[C@H](C)/C=C/C=C/C=C/1C"
< 3.16 nM

* * *

Test system: P-4E-BP1 (T37/46)
Assay: Cell based AlphaLISA assay, inhibition of P-4E-BP1 (T37/46) in MDA-MB-468 cells (mTORC1 substrate)
Settings: Homo sapiens, 4 h, AlphaLisa, two to four hours at 37° C., read-out: pIC50 for Inhibition of mTORC1 and mTORC2 Substrate Phosphorylation P-4E-BP1-(T37/46) (converted)
Method: Cell Based AlphaLISA Assays For Determining IC50 For Inhibition of P-Akt (S473), P-4E-BP1(T37/46), and P-P70S6K (T389) in MDA-MB-468 Cells mTOR Kinase Cellular Assay To measure functional activity of mTORC1 and mTORC2 in cells the phosphorylation of 4EBPT (Thr37/46) and P70S6K (Thr389), and AKT1/2/3 (Ser473) was monitored using AlphaLisa SureFire Ultra Kits (Perkin Elmer). […] Incubations were terminated by removal of the assay buffer and addition of lysis buffer provided with the assay kit. […]
Would you mind telling me the reported IC50 of each entry?

[
  {
    "molecule": "CO[C@H]1C[C@@H]2CC[C@@H](C)[C@@](O)(O2)C(=O)C(=O)N2CCCC[C@H]2C(=O)O[C@H]([C@H](C)C[C@@H]2CC[C@@H](OC(=O)NCCOCCOCCOCCOCCOCCOCCOCCOCCC(=O)NCc3ccc(Cn4nc(-c5ccc6oc(N)nc6c5)c5c(N)ncnc54)cc3)[C@H](OC)C2)C[C@H](N=[N+]=[N-])[C@H](C)/C=C(\\C)[C@@H](O)[C@@H](OC)C(=O)[C@H](C)C[C@H](C)/C=C/C=C/C=C/1C [Example 38]",
    "IC50": "> 1000 nM"
  },
  {
    "molecule": "CO[C@H]1C[C@@H]2CC[C@@H](C)[C@@](O)(O2)C(=O)C(=O)N2CCCC[C@H]2C(=O)O[C@H]([C@H](C)C[C@@H]2CC[C@@H](OC(=S)NCCOCCOCCOCCOCCOCCOCCOCCOCCC(=O)NCc3ccc(Cn4nc(-c5ccc6oc(N)nc6c5)c5c(N)ncnc54)cc3)[C@H](OC)C2)C[C@@H](O)[C@H](C)/C=C(\\C)[C@@H](O)[C@@H](OC)C(=O)[C@H](C)C[C@H](C)/C=C/C=C/C=C/1C [Example 39]",
    "IC50": "< 3.16 nM"
  },
  {
    "molecule": "CO[C@H]1C[C@@H]2CC[C@@H](C)[C@@](O)(O2)C(=O)C(=O)N2CCCC[C@H]2C(=O)O[C@H]([C@H](C)C[C@@H]2CC[C@@H](O)[C@H](OC)C2)CC(=O)[C@H](C)/C=C(\\C)[C@@H](OC(=O)NCc2cnc(N3CCN(C(=O)CCOCCN4CCN(c5ncc(C(=O)N6CCc7cc(Cn8nc(-c9ccc%10oc(N)nc%10c9)c9c(N)ncnc98)ccc7C6)cn5)CC4)CC3)nc2)[C@@H](OC)C(=O)[C@H](C)C[C@H](C)/C=C/C=C/C=C/1C [Example 136]",
    "IC50": "3.16 to 31.6 nM"
  },
  {
    "molecule": "CO[C@H]1C[C@@H]2CC[C@@H](C)[C@@](O)(O2)C(=O)C(=O)N2CCCC[C@H]2C(=O)O[C@H]([C@H](C)C[C@@H]2CC[C@@H](OC(=O)NCc3cnc(N4CCN(C(=O)CCOCCN5CCN(c6ncc(C(=O)NCCS(=O)(=O)c7ccc(C(=O)N8CCOc9ccc(-c%10ccc(N)nc%10)cc9C8)c(C)c7)cn6)CC5)CC4)nc3)[C@H](OC)C2)C[C@@H](O)[C@H](C)/C=C(\\C)[C@@H](O)[C@@H](OC)C(=O)[C@H](C)C[C@H](C)/C=C/C=C/C=C/1C [Example 125]",
    "IC50": "< 3.16 nM"
  }
]

Name the reported IC50 value associated with the molecule CO[C@H]1C[C@@H]2CC[C@@H](C)[C@@](O)(O2)C(=O)C(=O)N2CCCC[C@H]2C(=O)O[C@H]([C@H](C)C[C@@H]2CC[C@@H](OC(=O)NCc3cnc(N4CCN(C(=O)CCOCCN5CCN(c6ncc(C(=O)N7CCc8cc(Cn9nc(-c%10ccc%11oc(N)nc%11c%10)c%10c(N)ncnc%109)ccc8C7)cn6)CC5)CC4)nc3)[C@H](OC)C2)C[C@H](N=[N+]=[N-])[C@H](C)/C=C(\C)[C@@H](O)[C@@H](OC)C(=O)[C@H](C)C[C@H](C)/C=C/C=C/C=C/1C [Example 137]
< 3.16 nM

Provenance of the data: patent US10980889B1
